Molecular target: tyrosine-specific protein-kinase (epidermal growth factor receptor-kinase, A-431 membrane fraction) (Homo sapiens)
Construct: a membrane fraction of human epidermal carcinoma cells A-431 was used; endogenous in cells; host or cells: A-431 human epidermal carcinoma cells, membrane fraction
Sequence (P00533 25-1210): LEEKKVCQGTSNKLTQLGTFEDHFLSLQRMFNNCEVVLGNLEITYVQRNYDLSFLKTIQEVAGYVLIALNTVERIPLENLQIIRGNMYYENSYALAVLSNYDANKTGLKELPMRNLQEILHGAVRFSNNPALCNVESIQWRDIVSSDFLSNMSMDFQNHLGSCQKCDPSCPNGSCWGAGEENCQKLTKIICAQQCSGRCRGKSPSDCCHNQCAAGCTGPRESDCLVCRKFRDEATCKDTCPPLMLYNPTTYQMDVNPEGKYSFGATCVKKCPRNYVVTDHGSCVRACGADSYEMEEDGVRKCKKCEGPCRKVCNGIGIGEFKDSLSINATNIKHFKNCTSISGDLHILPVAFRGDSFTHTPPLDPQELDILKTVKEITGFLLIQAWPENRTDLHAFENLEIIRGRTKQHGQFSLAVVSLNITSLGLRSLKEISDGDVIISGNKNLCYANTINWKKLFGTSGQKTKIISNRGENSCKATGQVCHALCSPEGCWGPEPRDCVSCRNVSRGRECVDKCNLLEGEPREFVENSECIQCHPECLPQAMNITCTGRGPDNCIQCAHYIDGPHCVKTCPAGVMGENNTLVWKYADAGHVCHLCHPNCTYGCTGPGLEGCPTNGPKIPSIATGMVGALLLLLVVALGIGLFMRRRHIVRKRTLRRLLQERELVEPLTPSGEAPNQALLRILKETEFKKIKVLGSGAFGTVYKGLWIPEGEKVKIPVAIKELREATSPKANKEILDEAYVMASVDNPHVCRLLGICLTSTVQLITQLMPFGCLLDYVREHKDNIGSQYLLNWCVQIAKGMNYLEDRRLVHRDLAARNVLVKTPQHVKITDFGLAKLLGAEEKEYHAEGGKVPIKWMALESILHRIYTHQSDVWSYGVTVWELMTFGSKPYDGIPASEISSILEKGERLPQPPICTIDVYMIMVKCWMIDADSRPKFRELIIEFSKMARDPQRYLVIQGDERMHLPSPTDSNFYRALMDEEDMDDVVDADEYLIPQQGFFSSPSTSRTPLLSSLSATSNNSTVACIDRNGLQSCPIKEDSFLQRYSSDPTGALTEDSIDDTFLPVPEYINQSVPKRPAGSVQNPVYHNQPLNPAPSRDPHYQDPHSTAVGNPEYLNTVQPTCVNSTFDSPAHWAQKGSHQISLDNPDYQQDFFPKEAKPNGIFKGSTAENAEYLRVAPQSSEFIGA
Assay: TPK-I activity (inhibition of tyrosine-specific protein-kinase / epidermal growth factor receptor-kinase, 32P-ATP, A-431 membrane fraction)
Type: biochemical
Details: A-431 membrane fraction, EGF, histone, pH 7.4, 0° C., 30 minutes; read-out: TPK-I IC50 (converted)
Experimental: 50 μl of the reaction mixture was sampled and absorbed to Wattman No. 3MM filter membrane and dipped in an ice-cooled TCA. After kept for 30 minutes, the filter membrane was taken out and washed out TCA, ethanol and ether, and the count of ^32 P as stuck to the said filter membrane was measured (a). The same reaction and treatment were carried out, where the test substance only was excluded, and the count of ^32 P on the filter was measured in the same manner (b). […]
Kindly supply the reported IC50 values for the records listed here.
Reply with just the number (in µM).

The compound listed as O=CNC=Cc1ccc(O)c(O)c1 [Compound 14, (2-formamidovinyl)-3,4-dihydroxybenzene] has a reported IC50 of 7.26

Form field IC50, entry O=CNC=Cc1cccc(O)c1O [Compound 13, (2-formamidovinyl)-2,3-dihydroxybenzene] : 1.67

IC50 measured on CC(=O)NC=Cc1cc(O)ccc1O [Compound 18, (2-acetamidovinyl)-2,5-dihydroxybenzene] = 15.5
